- Test system: Salmonella typhimurium
- ASSAY: Mutagenicity in Salmonella typhimurium TA98 assessed as increase in number of revertants in presence of rat liver S9 fraction by Ames test relative to control
- Assay type: toxicity, organism-based
- CONDITION_SET: salmonella enterica subsp. enterica serovar typhimurium
I'd appreciate it if you could supply fold change (FC) values for the items below.
No unit in the answer, only the number.

What measured fold change (FC) goes with Nc1ccn(Cc2ccc(F)c(F)c2)n1 ?
2.7

Consider next the compound Cc1ccc(Cn2ccc(N)n2)cc1 in the same way.
15.1

Consider next the compound Nc1cnn(Cc2ccc(F)c(F)c2)n1 in the same way.
1.3

Consider next the compound N#Cc1cc(Cn2ccc(N)n2)ccc1F in the same way.
1.5

Consider next the compound Nc1ncn(Cc2ccc(F)c(F)c2)n1 in the same way.
1.1

Consider next the compound Nc1ccn(CC2CCC(F)(F)CO2)n1 (stereo in doubt; 14a) in the same way.
1.4
